Data provenance: ChEMBL document CHEMBL2331335

The following compounds are shown together with reported IC50 values.
Tested on: Hepatitis B virus
Experiment: Antiviral activity against HBV infected in human HepG2.2.15 cells assessed as inhibition of viral surface antigen production
Assay type: functional, organism-based
Protocol Conditions: HepG2 2.2.15
Provide only the numeric value, understood in µM.

CCC(=O)O[C@@H]1[C@@H](O)C[C@@H]2C(=CC[C@@H]3[C@@]2(C)C(=O)C[C@]2(C)[C@@H]([C@@](C)(O)C(=O)CCC(C)(C)OC(C)=O)[C@H](O)C[C@@]32C)C1(C)C = 18.4

Kindly consider the entry below.
Input: Quick check: IC50 of CCC(=O)O[C@H]1C[C@@H]2C(=CC[C@@H]3[C@@]2(C)C(=O)C[C@]2(C)[C@@H]([C@@](C)(O)C(=O)CCC(C)(C)OC(C)=O)[C@H](O)C[C@@]32C)C(C)(C)[C@@H]1O ?
Output: 15.6

---

The following compounds are shown together with reported Ratio CC50/IC50 values.
Experiment: Selectivity index, ratio of CC50 for human HepG2.2.15 cells to IC50 for HBV infected in human HepG2.2.15 cells assessed as inhibition of viral surface antigen production
Type: functional

The cases that follow already have their Ratio CC50/IC50 on record.
CCOCC(=O)O[C@H]1C[C@@H]2C(=CC[C@@H]3[C@@]2(C)C(=O)C[C@]2(C)[C@@H]([C@@](C)(O)C(=O)CCC(C)(C)O)[C@H](OC(=O)COCC)C[C@@]32C)C(C)(C)[C@@H]1OC(=O)COCC = 1.8
CCC(=O)O[C@@H]1[C@@H](O)C[C@@H]2C(=CC[C@@H]3[C@@]2(C)C(=O)C[C@]2(C)[C@@H]([C@@](C)(O)C(=O)CCC(C)(C)OC(C)=O)[C@H](O)C[C@@]32C)C1(C)C = 5.5

Input: Quick check: Ratio CC50/IC50 of C[C@H](Cn1cnc2c(N)ncnc21)OCP(=O)(O)O [TENOFOVIR ANHYDROUS] ?
Output: >1.1

Input: Another compound: CC(=O)O[C@H]1C[C@H]2[C@]3(C)C(=O)C[C@]4(C)[C@@H]([C@@](C)(O)C(=O)CCC(C)(C)OC(C)=O)[C@H](OC(C)=O)C[C@@]4(C)[C@@H]3C[C@@H](O)[C@@]2(OC(=O)c2cccc(Cl)c2)C(C)(C)[C@@H]1OC(C)=O
Output: >5.9

Input: Another compound: CC(C)(O)CCC(=O)[C@](C)(O)[C@H]1[C@H](O)C[C@@]2(C)[C@@H]3CC=C4[C@@H](C[C@H](O)[C@@H](O)C4(C)C)[C@]3(C)C(=O)C[C@]12C
Output: <1

---

The following molecules are shown together with reported IC50 values.
Tested on: Hepatitis B virus
Experiment: Antiviral activity against HBV infected in human HepG2.2.15 cells assessed as inhibition of viral DNA replication
Type: functional, organism-based
Protocol Conditions: HepG2 2.2.15

The cases that follow already have their IC50 on record.
CC(=O)O[C@H]1C[C@H]2[C@]3(C)C(=O)C[C@]4(C)[C@@H]([C@@](C)(O)C(=O)CCC(C)(C)OC(C)=O)[C@H](OC(C)=O)C[C@@]4(C)[C@@H]3C[C@H]3O[C@]32C(C)(C)[C@@H]1OC(C)=O = > 961 µM
CC(=O)O[C@H]1C[C@@H]2C(=CC[C@@H]3[C@@]2(C)C(=O)C[C@]2(C)[C@@H]([C@@](C)(O)C(=O)CCC(C)(C)OC(C)=O)[C@H](O)C[C@@]32C)C(C)(C)[C@@H]1OC(C)=O = 9.8 µM
CC(=O)OC(C)(C)CCC(=O)[C@](C)(O)[C@H]1[C@H](O)C[C@@]2(C)[C@@H]3C[C@@H](O)[C@]4(OC(=O)c5cccc(Cl)c5)[C@@H](C[C@H](O)[C@@H](O)C4(C)C)[C@]3(C)C(=O)C[C@]12C = 7.2 µM
CCOCC(=O)O[C@H]1C[C@@H]2C(=CC[C@@H]3[C@@]2(C)C(=O)C[C@]2(C)[C@@H]([C@@](C)(O)C(=O)CCC(C)(C)OC(C)=O)[C@H](OC(=O)COCC)C[C@@]32C)C(C)(C)[C@@H]1OC(=O)COCC = 10 µM

Kindly consider the entry below.
Input: Quick check: IC50 of CC(C)(O)CCC(=O)[C@](C)(O)[C@H]1[C@H](O)C[C@@]2(C)[C@@H]3CC=C4[C@@H](C[C@H](O)[C@@H](O)C4(C)C)[C@]3(C)C(=O)C[C@]12C ?
Output: 31.4 µM

---

Tested on: Hepatitis B virus
Experiment: Antiviral activity against HBV infected in human HepG2.2.15 cells assessed as inhibition of viral surface antigen production
Type: functional, organism-based
Protocol Conditions: HepG2 2.2.15
Measured Endpoint: pIC50
# reply with the number alone; pIC50 is -log10 of concentration in mol/L

The cases that follow already have their pIC50 on record.
C[C@H](Cn1cnc2c(N)ncnc21)OCP(=O)(O)O [TENOFOVIR ANHYDROUS] = 2.80
CCC(=O)O[C@H]1C[C@@H]2C(=CC[C@@H]3[C@@]2(C)C(=O)C[C@]2(C)[C@@H]([C@@](C)(O)C(=O)CCC(C)(C)OC(C)=O)[C@H](O)C[C@@]32C)C(C)(C)[C@@H]1OC(=O)CC = 5.00

Input: Missing value: pIC50, Hepatitis B virus, entry CCOCC(=O)O[C@H]1C[C@@H]2C(=CC[C@@H]3[C@@]2(C)C(=O)C[C@]2(C)[C@@H]([C@@](C)(O)C(=O)CCC(C)(C)O)[C@H](OC(=O)COCC)C[C@@]32C)C(C)(C)[C@@H]1OC(=O)COCC . Fill in?
Output: 3.99

Input: Another compound: CC(=O)O[C@@H]1[C@@H](O)C[C@@H]2C(=CC[C@@H]3[C@@]2(C)C(=O)C[C@]2(C)[C@@H]([C@@](C)(O)C(=O)CCC(C)(C)OC(C)=O)[C@H](O)C[C@@]32C)C1(C)C
Output: 3.72

---

System: Hepatitis B virus
Experiment: Antiviral activity against HBV infected in human HepG2.2.15 cells assessed as inhibition of viral DNA replication
Format: functional, organism-based
Protocol Conditions: HepG2 2.2.15
Measured Endpoint: IC50

The cases that follow already have their IC50 on record.
CCOCC(=O)O[C@H]1C[C@H]2[C@]3(C)C(=O)C[C@]4(C)[C@@H]([C@@](C)(O)C(=O)CCC(C)(C)OC(C)=O)[C@H](OC(=O)COCC)C[C@@]4(C)[C@@H]3C[C@H]3O[C@]32C(C)(C)[C@@H]1OC(=O)COCC = > 633 µM
CCC(=O)O[C@H]1C[C@@H]2C(=CC[C@@H]3[C@@]2(C)C(=O)C[C@]2(C)[C@@H]([C@@](C)(O)C(=O)CCC(C)(C)OC(C)=O)[C@H](OC(C)=O)C[C@@]32C)C(C)(C)[C@@H]1OC(=O)CC = 19 µM
CC(=O)O[C@H]1C[C@H]2[C@]3(C)C(=O)C[C@]4(C)[C@@H]([C@@](C)(O)C(=O)CCC(C)(C)OC(C)=O)[C@H](OC(C)=O)C[C@@]4(C)[C@@H]3C[C@@H](O)[C@@]2(OC(=O)c2cccc(Cl)c2)C(C)(C)[C@@H]1OC(C)=O = > 1050 µM

Input: Quick check: IC50 of COCC(=O)O[C@H]1C[C@H]2[C@]3(C)C(=O)C[C@]4(C)[C@@H]([C@@](C)(O)C(=O)CCC(C)(C)OC(C)=O)[C@H](OC(=O)COC)C[C@@]4(C)[C@@H]3C[C@H]3O[C@]32C(C)(C)[C@@H]1OC(=O)COC ?
Output: > 1110 µM

---

Tested on: Hepatitis B virus
Experiment: Antiviral activity against HBV infected in human HepG2.2.15 cells assessed as inhibition of viral e antigen production
Type: functional, organism-based
Protocol Conditions: HepG2 2.2.15
The following compounds are shown together with reported IC50 values.

CCOCC(=O)O[C@H]1C[C@@H]2C(=CC[C@@H]3[C@@]2(C)C(=O)C[C@]2(C)[C@@H]([C@@](C)(O)C(=O)CCC(C)(C)O)[C@H](OC(=O)COCC)C[C@@]32C)C(C)(C)[C@@H]1OC(=O)COCC = > 184 µM

Kindly consider the entry below.
Input: Quick check: IC50 of CC(=O)O[C@H]1C[C@H]2[C@]3(C)C(=O)C[C@]4(C)[C@@H]([C@@](C)(O)C(=O)CCC(C)(C)OC(C)=O)[C@H](OC(C)=O)C[C@@]4(C)[C@@H]3C[C@H]3O[C@]32C(C)(C)[C@@H]1OC(C)=O ?
Output: > 961 µM

---

The following compounds are shown together with reported pIC50 values.
Test system: Hepatitis B virus
Experiment: Antiviral activity against HBV infected in human HepG2.2.15 cells assessed as inhibition of viral surface antigen production
Type: functional, organism-based
Protocol Conditions: HepG2 2.2.15
pIC50: −log10 of the molar value.

CCOCC(=O)O[C@H]1C[C@H]2[C@]3(C)C(=O)C[C@]4(C)[C@@H]([C@@](C)(O)C(=O)CCC(C)(C)OC(C)=O)[C@H](OC(=O)COCC)C[C@@]4(C)[C@@H]3C[C@@H](O)[C@@]2(OC(=O)c2cccc(Cl)c2)C(C)(C)[C@@H]1OC(=O)COCC = < 3.15
CCCC(=O)O[C@@H]1[C@@H](O)C[C@@H]2C(=CC[C@@H]3[C@@]2(C)C(=O)C[C@]2(C)[C@@H]([C@@](C)(O)C(=O)CCC(C)(C)OC(C)=O)[C@H](O)C[C@@]32C)C1(C)C = < 5.20
COc1cccc(/C=C/C(=O)O[C@H]2C[C@@H]3C(=CC[C@@H]4[C@@]3(C)C(=O)C[C@]3(C)[C@@H]([C@@](C)(O)C(=O)CCC(C)(C)OC(C)=O)[C@H](OC(=O)/C=C/c5cccc(OC)c5)C[C@@]43C)C(C)(C)[C@@H]2OC(=O)/C=C/c2cccc(OC)c2)c1 = < 3.14

Kindly consider the entry below.
Input: Quick check: pIC50 of CC(=O)O[C@H]1C[C@H]2[C@]3(C)C(=O)C[C@]4(C)[C@@H]([C@@](C)(O)C(=O)CCC(C)(C)OC(C)=O)[C@H](OC(C)=O)C[C@@]4(C)[C@@H]3C[C@H]3O[C@]32C(C)(C)[C@@H]1OC(C)=O ?
Output: < 3.02
